assay: chemical genetic growth profiling, strain panel (AID 1159580);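 further: tested at 20 µM; growth read once vehicle control cultures reached saturation at 30 °C; 1 = growth at the plate median or of vehicle wells; lower values mean less growth of the strain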; conditions: S. cerevisiae deletion strains, growth OD, locus YGL248W, strain PDE1, active compounds read low
The whole screen tested about 5,500 compounds, of which about 2,000 (36%) were called active. Another 18% or so got no clear call; they are omitted. The list shows a part of the results.
Entries and their measured normalized growth follow.
The response must contain the number and no unit.

Record excerpt, results attached:
>>> number("CC[C@H]1OC(=O)[C@H](C)[C@@H](O[C@H]2C[C@@](C)(OC)[C@@H](O)[C@H](C)O2)[C@H](C)[C@@H](O[C@@H]2O[C@H](C)C[C@H](N(C)C)[C@H]2O)[C@](C)(OC)C[C@@H](C)C(=O)[C@H](C)[C@@H](O)[C@]1(C)O")
0.986
>>> number("Oc1cc(O)c2c(c1)O[C@H](c1cc(O)c(O)c(O)c1)[C@H](O)C2")
0.991
>>> number("CC1(C)S[C@@H]2[C@H](NC(=O)[C@H](N)c3ccccc3)C(=O)N2[C@H]1C(=O)O")
1.02
>>> number("CCC[C@H](N[C@@H](C)C(=O)N1[C@H](C(=O)O)C[C@@H]2CCCC[C@@H]21)C(=O)OCC")
1.01
>>> number("Oc1cc(O)c2c(c1)O[C@H](c1ccc(O)c(O)c1)[C@@H](O)C2")
0.988
>>> number("NS(=O)(=O)c1cc2c(cc1Cl)NC=NS2(=O)=O")
1.01

Q: Assign normalized growth to the following record: COC(=O)[C@@H]1OC(=O)C2OC23[C@@]1(C)CCC1[C@]2(C)C(C[C@H](O)[C@]13C)C(C)(C)[C@H](OC(C)=O)C[C@@H]2OC(C)=O (stereo not given in full)
A: 1.01

Q: Assign normalized growth to the following record: O=C1CCC(N2C(=O)c3ccccc3C2=O)C(=O)N1 (stereo not given)
A: 1.01

Q: Assign normalized growth to the following record: C/C=C(\C)C(=O)O[C@H]1C[C@@H](OC(C)=O)[C@@]2(C(=O)OC)CO[C@@H]3C2[C@]12CO[C@](O)(C(=O)OC)[C@H]2[C@](C)(C12O[C@@]1(C)[C@H]1C[C@@H]2OC2OC=C[C@@]21O)[C@@H]3O (stereo not given in full)
A: 0.99

Q: Assign normalized growth to the following record: CC(=O)O[C@H]1C[C@@H](OC(C)=O)C(C)(C)C2CC(=O)[C@]3(C)C(CC[C@@]4(C)[C@H](C(=O)O)OC(=O)C5OC543)[C@]21C (stereo not given in full)
A: 1.01

====

experiment: chemical genetic growth profiling, strain panel (AID 1159580); settings: S. cerevisiae deletion strains, growth OD, locus YCL069W, strain vba3, active compounds read low
In all, about 5,500 compounds went through this assay and about 2,000 (36%) were called active. About 18% were inconclusive and are not listed. This is one part of the list.
Entries and their measured normalized growth follow.
The response must contain the number and no unit.

>>> number("CCC[C@H](N[C@@H](C)C(=O)N1[C@H](C(=O)O)C[C@@H]2CCCC[C@@H]21)C(=O)OCC")
1.02
>>> number("CCn1cc(C(=O)O)c(=O)c2cc(F)c(N3CCNCC3)nc21")
0.97
>>> number("CC1(O)CC2C(CC1O)C2(C)C (stereo unspecified)")
1
>>> number("Clc1ccc(C(c2ccc(Cl)cc2)C(Cl)(Cl)Cl)cc1")
0.999
>>> number("C=C[C@@](C)(O)CCC1C(=C)C[C@H](O)C2C(C)(C)CCCC12C (stereo partly specified)")
0.999

Q: Assign normalized growth to the following record: CN(C)CCCC1(c2ccc(F)cc2)OCc2cc(C#N)ccc21 (stereo unspecified)
A: 0.992

Q: Assign normalized growth to the following record: `CC[C@@]1(O)C[C@H](O[C@H]2C[C@H](N(C)C)[C@H](O)[C@H](C)O2)c2c(cc3c(c2O)C(=O)c2c(O)cccc2C3=O)[C@H]1C(=O)OC`
A: 0.972

Q: Assign normalized growth to the following record: CNCCC(Oc1ccc(C(F)(F)F)cc1)c1ccccc1 (stereo unspecified)
A: 0.998

Q: Assign normalized growth to the following record: C=C1CCC2[C@](C)(CO)[C@H](O)CC[C@@]2(C)[C@@H]1C/C=C1/C(=O)OC[C@H]1O (stereo partly specified)
A: 1.01

Q: Assign normalized growth to the following record: `O=C(O)/C=C/c1ccc(O)c(O)c1`
A: 1

Q: Assign normalized growth to the following record: Clc1ccc(C(OCCN2CCCCC2)c2ccccc2)cc1 (stereo unspecified)
A: 1.02

Q: Assign normalized growth to the following record: `CC[C@@]1(O)C[C@H](O[C@H]2C[C@H](N(C)C)[C@H](O)[C@H](C)O2)c2c(cc3c(c2O)C(=O)c2c(O)ccc(O)c2C3=O)[C@H]1C(=O)OC`
A: 0.948

Q: Assign normalized growth to the following record: `Nc1ncn[nH]1`
A: 1.02

Q: Assign normalized growth to the following record: `C=CCc1ccc(O)c(OC)c1`
A: 0.993

Q: Assign normalized growth to the following record: `CNC(=O)O/N=C(\C)SC`
A: 1

Q: Assign normalized growth to the following record: `COc1ccc(-c2coc3cc(O)ccc3c2=O)cc1`
A: 0.98

====

Entries and their measured normalized growth follow.
experiment: chemical genetic growth profiling, strain panel (AID 1159580); details: S. cerevisiae deletion strains, growth OD, locus YHR079C, strain IRE1, active compounds read low
The whole screen tested about 5,500 compounds, of which about 2,000 (36%) were called active. Not shown: some 18% with an inconclusive outcome. Some of the results follow.
The response must contain the number and no unit.

Record excerpt, results attached:
>>> number("Nc1ncn[nH]1")
1
>>> number("CC1COc2c(N3CCN(C)CC3)c(F)cc3c(=O)c(C(=O)O)cn1c23 (stereo unspecified)")
0.988

Q: Assign normalized growth to the following record: COC(=O)C[C@H]1C2(C)CC34OC5(C)O[C@@]6([C@H](OC(C)=O)C(OC(C)=O)[C@]7(C)C(/C(=C(/O)C(C)C)C(=O)O[C@H]7c7ccoc7)[C@@]6(O5)[C@H](OC(C)=O)[C@@]3(O)C2OC(=O)C(C)C)[C@]14C (stereo partly specified)
A: 0.983

====

Entries and their measured normalized growth follow.
experiment: chemical genetic growth profiling, strain panel (AID 1159580);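 further: tested at 20 µM; growth read once vehicle control cultures reached saturation at 30 °C; 1 = growth at the plate median or of vehicle wells; lower values mean less growth of the strain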; conditions: S. cerevisiae deletion strains, growth OD, locus YKR026C, strain gcn3, active compounds read low
The whole screen tested about 5,500 compounds, of which about 2,000 (36%) were called active. Another 18% or so got no clear call; they are omitted. Some of the results follow.
The response must contain the number and no unit.

Record excerpt, results attached:
>>> number("Nc1ncn[nH]1")
1.01
>>> number("COc1ccc(OC)c(C(O)CNC(=O)CN)c1 (centres undefined)")
1.01
>>> number("O=C(O)CCCc1ccc(N(CCCl)CCCl)cc1")
0.971
>>> number("O=C1C(Cl)=C(Cl)C(=O)C(Cl)=C1Cl")
0.987
>>> number("Cc1[nH]c2ccccc2c1CN(C)C")
1.02

Q: Assign normalized growth to the following record: COC(=O)C[C@H]1C2(C)CC34OC5(C)O[C@@]6([C@H](OC)C(OC(=O)C(C)C)[C@]7(C)C(/C(=C(/OC)C(C)C)C(=O)O[C@H]7c7ccoc7)[C@@]6(O5)[C@H](OC)[C@@]3(OC)C2OC(C)=O)[C@]14C (some centres undefined)
A: 0.983

Q: Assign normalized growth to the following record: `COC(=O)c1cc(=O)c(O)c2c(O)c(O)ccc2c1`
A: 0.961

====

Entries and their measured normalized growth follow.
assay: chemical genetic growth profiling, strain panel (AID 1159580);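 further: tested at 20 µM; growth read once vehicle control cultures reached saturation at 30 °C; 1 = growth at the plate median or of vehicle wells; lower values mean less growth of the strain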; settings: S. cerevisiae deletion strains, growth OD, locus YLR357W, strain rsc2, active compounds read low
Out of some 5,500 compounds screened, about 2,000 (36%) were called active. Not shown: some 18% with an inconclusive outcome. This is one part of the list.

Q: Assign normalized growth to the following record: `CC(=O)Oc1cc(OC(C)=O)c2c(c1)O[C@H](c1ccc(OC(C)=O)c(OC(C)=O)c1)[C@@H](OC(C)=O)C2`
A: 0.992 (inactive)

Q: Assign normalized growth to the following record: `COc1ccc(-c2coc3cc(O)ccc3c2=O)c(OC)c1`
A: 0.98 (inactive)

Q: Assign normalized growth to the following record: `O=C(O)c1cc2cc(F)ccc2[nH]1`
A: 0.976 (inactive)

====

experiment: chemical genetic growth profiling, strain panel (AID 1159580);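 further: tested at 20 µM; growth read once vehicle control cultures reached saturation at 30 °C; 1 = growth at the plate median or of vehicle wells; lower values mean less growth of the strain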; conditions: S. cerevisiae deletion strains, growth OD, locus YAL026C, strain drs2, active compounds read low
The whole screen tested about 5,500 compounds, of which about 2,000 (36%) were called active. Inconclusive results (about 18%) are left out. This is one part of the list.
measurement_kind: normalized growth
The response must contain the number and no unit.

Q: Assign normalized growth to the following record: `COc1ccc(-c2coc3cc(O)ccc3c2=O)c(OC)c1`
A: 1.01

Q: Assign normalized growth to the following record: `COc1ccc(C(c2ccc(OC)cc2)C(Cl)(Cl)Cl)cc1`
A: 1.01

Q: Assign normalized growth to the following record: CC1CCc2cc(F)cc3c(=O)c(C(=O)O)cn1c23 (stereo unspecified)
A: 0.981

Q: Assign normalized growth to the following record: `CCCCNC(=O)NS(=O)(=O)c1ccc(C)cc1`
A: 1.01

Q: Assign normalized growth to the following record: `Cc1ncc(CNC(=O)N(CCCl)N=O)c(N)n1`
A: 1.02

Q: Assign normalized growth to the following record: COC(=O)[C@@H]1OC(=O)C2OC23[C@@]1(C)CCC1[C@]2(C)C(C[C@H](O)[C@]13C)C(C)(C)[C@H](OC(C)=O)C[C@@H]2OC(C)=O (stereo partly specified)
A: 1.01

Q: Assign normalized growth to the following record: `COc1ccc(-c2coc3cc(O)ccc3c2=O)c(OC)c1O`
A: 0.979

Q: Assign normalized growth to the following record: COc1ccc(C(CN(C)C)C2(O)CCCCC2)cc1 (stereo unspecified)
A: 0.995

Q: Assign normalized growth to the following record: `O=c1c(-c2ccc(O)cc2)coc2cc(O)ccc12`
A: 0.983

Q: Assign normalized growth to the following record: `O=C(c1ccc(OCCN2CCCCC2)cc1)c1c(-c2ccc(O)cc2)sc2cc(O)ccc12`
A: 0.987

Q: Assign normalized growth to the following record: `Cc1ccc(S(=O)(=O)NC(=O)NN2CCCCCC2)cc1`
A: 0.974

Q: Assign normalized growth to the following record: `CN(C)CCN(Cc1cccs1)c1ccccn1`
A: 1.01

Q: Assign normalized growth to the following record: `CCCCCCCCC(=O)NCc1ccc(O)c(OC)c1`
A: 1.01

Q: Assign normalized growth to the following record: `C#CCN(C)Cc1ccccc1`
A: 1.02

Q: Assign normalized growth to the following record: CCn1cc(C(=O)O)c(=O)c2cc(F)c(N3CCNC(C)C3)c(F)c21 (stereo unspecified)
A: 0.974

Q: Assign normalized growth to the following record: COc1ccc(C2CNC(=O)C2)cc1OC1CCCC1 (stereo unspecified)
A: 1.02
